The reported numbers originate from patent US20130131320A1.

biological target: T1, soluble EGFR (human epithelial cell growth factor receptor 1, Her1) (human, UniProt P00533 25-645, limits assumed); assay: ITC, 50 uM Fv titrated into 5 uM soluble EGFR
T1 construct: The metal chelate purification implies a His tag, but none is described; also called target antigen
Measured ΔH values are reported for all entries that follow.
# unit: kcal/mol | format: bare number

Qu. Given the binder h528Fv 5.0.0 (other) VH: QVQLVQSGAEVKKPGASVKVSCKASGYTFTSYWMHWVRQAPGQGLEWMGNIWPGSGGTNYAEKFKNRVTMTRDTSISTAYMELSRLRSDDTAVYYCARSGGPYFFDYWGQGTLVTVSS VL: DIVMTQSPLSLPVTPGEPASISCRSSQNIVHNNGITYLEWYLQKPGQSPQLLIYKVSDRFSGVPDRFSGSGSGTDFTLKISRVEAEDVGVYYCFQGSHIPPTFGQGTKVEIKR , what is its reported ΔH?
Ans. -21

Would you kindly look at the next entry?
Qu. Would you kindly share the measured ΔH for h528Fv 5.73.0 (other) VH: QVQLVQSGAEVKKPGASVKVSCKASGYTFTSYWMHWVRQAPGQGLEWMGNIWPGNGGTNYAEQFKQRVTMTRDTSISTAYMELSRLRSDDTAVYYCARSGGPYFFDYWGQGTLVTVSS VL: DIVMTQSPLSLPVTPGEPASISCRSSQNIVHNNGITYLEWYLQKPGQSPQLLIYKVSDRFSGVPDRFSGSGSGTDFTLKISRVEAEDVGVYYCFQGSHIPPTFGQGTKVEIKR ?
Ans. -17
